- system name: G340A-MoaA (Staphylococcus aureus, UniProt P69848, G340A)
- test name: MoaA/MoaC coupled assay
- Format: biochemical
- experimental context: KD (peptide titration, figure legend), Figure 3C, nonlinear fit to the Hill equation, coupled assay
pKd: −log10 of the molar value. Ends that are not written are not given here.
measured parameter: pKd

> print(dat)
                     sequence.data                               system.name  measured.parameter  measured.value
1  RKKINMNYIGG [11-mer wt peptide]  G340A-MoaA (Staphylococcus aureus, UniProt P69848, G340A)                 pKd            3.82
